- MEASUREMENT TARGET: UniProt:Q9XUB2
- Sequence (Q9XUB2 whole entry): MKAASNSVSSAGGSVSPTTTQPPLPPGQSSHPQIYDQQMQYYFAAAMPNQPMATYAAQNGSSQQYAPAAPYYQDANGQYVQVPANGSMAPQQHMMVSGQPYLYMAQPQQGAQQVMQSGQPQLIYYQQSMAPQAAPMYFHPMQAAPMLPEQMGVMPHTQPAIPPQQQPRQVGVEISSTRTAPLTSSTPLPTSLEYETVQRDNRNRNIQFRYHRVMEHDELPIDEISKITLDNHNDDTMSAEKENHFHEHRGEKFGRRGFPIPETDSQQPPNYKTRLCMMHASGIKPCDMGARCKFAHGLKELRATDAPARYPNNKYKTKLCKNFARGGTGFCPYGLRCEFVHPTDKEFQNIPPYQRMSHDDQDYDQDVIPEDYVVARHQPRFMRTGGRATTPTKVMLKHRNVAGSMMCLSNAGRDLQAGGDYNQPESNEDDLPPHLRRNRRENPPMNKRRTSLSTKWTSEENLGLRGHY
- ASSAY METHOD TEXT: potency of MEX-5 RNA-binding blockers – biochemical, C. elegans, fluorescence polarization, dose response (AID 1960)
Calls of active or inactive are those of the source.
READOUT KIND: EC50

>>> observed_result("O=c1c2ccccc2oc2ccc(NCCCn3ccnc3)cc12")
"50.5 µM (active)"
>>> observed_result("COc1cc(C2C(C#N)=C(N)OC3=C2C(=O)CC(C)(C)C3)ccc1OCCN1CCOCC1 (stereo not given)")
"> 300 µM (not active)"
>>> observed_result("CC1OC(Oc2c(-c3cc(O)c(O)c(O)c3)oc3cc(O)cc(O)c3c2=O)C(O)C(O)C1O (stereo not given)")
"17.2 µM (active)"
>>> observed_result("CCN1C(=O)/C(=C2\\SC(=S)N(NC(=O)c3ccccc3O)C2=O)c2ccccc21")
"5.31 µM (active)"
>>> observed_result("O=C(NC1CC1)C1Nc2ccc(OC(F)(F)F)cc2C2C=CCC12 (stereo not given)")
"> 300 µM (not active)"
>>> observed_result("O=C(OCCc1ccccc1)c1cc(O)c(O)c(O)c1")
"29.6 µM (active)"

Problem: Supply reported EC50 belonging to this compound: `Cc1ccccc1N1C(=O)NC(=O)/C(=C\c2cc(C)n(C)c2C)C1=O`
Solution: > 300 µM (not active)

Problem: Please indicate EC50 recorded for `COc1cc2ccccc2cc1C(=O)NC(=S)Nc1cc(C(=O)O)ccc1C`
Solution: > 300 µM (not active)

Problem: Consider the compound `CCC1=NN2C(=N)/C(=C\c3ccc(SCc4ccco4)o3)C(=O)N=C2S1` . State its measured EC50.
Solution: 6.85 µM (active)

Problem: For the compound O=C(NCCCN1CCOCC1)C1Nc2ccc(OC(F)(F)F)cc2C2C=CCC12 (stereo not given) , give its measured EC50 value.
Solution: > 300 µM (not active)

====

// reported IC50 per item
- MEASUREMENT TARGET: Type-1 angiotensin II receptor (Homo sapiens, UniProt P30556)
- Sequence (P30556 whole entry): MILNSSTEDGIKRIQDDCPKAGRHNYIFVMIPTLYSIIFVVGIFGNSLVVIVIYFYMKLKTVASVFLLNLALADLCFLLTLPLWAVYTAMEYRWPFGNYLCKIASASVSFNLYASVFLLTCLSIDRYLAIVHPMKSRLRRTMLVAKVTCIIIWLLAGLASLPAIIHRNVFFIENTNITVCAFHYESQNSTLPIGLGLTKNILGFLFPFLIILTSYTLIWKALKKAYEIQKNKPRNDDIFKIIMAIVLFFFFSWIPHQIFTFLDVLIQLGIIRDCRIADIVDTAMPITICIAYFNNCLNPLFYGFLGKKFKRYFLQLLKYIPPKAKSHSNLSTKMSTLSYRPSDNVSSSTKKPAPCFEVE
- ASSAY METHOD TEXT: antagonism of angiotensin II type 1 receptor – cell-based, uHTS hits, selectivity assay for APJ receptor antagonist project, dose response (AID 463214);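 note: antagonist potency against angiotensin II stimulated AT1 response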
- Format: functional
Active and inactive are the calls of the source.

Examples with answers:
>>> observed_result("COc1ccc(/C=C/C(=O)NC(=S)Nc2cc([N+](=O)[O-])ccc2O)cc1OC")
"> 40 µM (not active)"
>>> observed_result("CCN(CC)C(=S)SSC(=S)N(CC)CC")
"6.64 µM (active)"
>>> observed_result("COc1ccc(C(=O)CNc2ccccc2CO)cc1")
"26.1 µM (not active)"

Problem: Output IC50 of `C=CCN1C(=O)/C(=C\C=C2\N(C)c3ccccc3C2(C)C)SC1=S`
Solution: > 40 µM (not active)

Problem: Look up IC50 of `O=C1Nc2ccc([N+](=O)[O-])cc2C1=Nc1cccc(CO)c1` and report it.
Solution: > 40 µM (not active)

====

- MEASUREMENT TARGET: Luciferin 4-monooxygenase (Photinus pyralis, UniProt P08659)
- Sequence (P08659 whole entry): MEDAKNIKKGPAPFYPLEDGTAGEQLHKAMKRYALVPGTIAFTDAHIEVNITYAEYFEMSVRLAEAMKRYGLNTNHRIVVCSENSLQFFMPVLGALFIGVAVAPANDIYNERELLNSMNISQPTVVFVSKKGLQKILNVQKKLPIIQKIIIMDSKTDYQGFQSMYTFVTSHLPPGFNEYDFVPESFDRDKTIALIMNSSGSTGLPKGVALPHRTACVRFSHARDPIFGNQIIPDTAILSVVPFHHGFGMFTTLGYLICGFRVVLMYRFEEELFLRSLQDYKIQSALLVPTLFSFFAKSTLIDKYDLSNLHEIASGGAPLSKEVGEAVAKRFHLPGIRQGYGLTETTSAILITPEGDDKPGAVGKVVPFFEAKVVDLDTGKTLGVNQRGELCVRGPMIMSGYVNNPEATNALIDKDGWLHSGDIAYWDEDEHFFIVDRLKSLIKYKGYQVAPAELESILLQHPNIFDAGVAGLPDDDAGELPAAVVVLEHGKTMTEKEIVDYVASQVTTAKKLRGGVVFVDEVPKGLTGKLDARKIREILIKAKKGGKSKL
- ASSAY METHOD TEXT: inhibition of purified Photinus pyralis luciferase – biochemical, luminescence, dose response (AID 1891)
Calls of active or inactive are those of the source.
READOUT KIND: EC50

Example results:
>>> observed_result("Cc1ccc(-c2nc3ncccn3c2NC(=O)C2CC2)cc1")
"> 112 µM (not active)"
>>> observed_result("Clc1ccc(-c2nc3cc[nH]cc-3n2)cc1")
"1 µM (active)"
>>> observed_result("Cc1ccc(C(=O)C2CCN(CC(=O)Nc3ccc4c(c3)OCCO4)CC2)cc1")
"> 112 µM (not active)"
>>> observed_result("O=C(NC1CCCC1)c1csc2c1CCCC2")
"> 112 µM (not active)"
>>> observed_result("CCn1cc(NC(=O)Nc2ccccc2C(=O)OC)c(C(N)=O)n1")
"> 112 µM (not active)"
>>> observed_result("Cc1ccccc1-c1noc(-c2ccc(O)cc2)n1")
"0.122 µM (active)"
>>> observed_result("CCOC(=O)C(OC(=O)c1sc(=S)n(C)c1C)C(C)=O (stereo not given)")
"> 112 µM (not active)"
>>> observed_result("CCC1CCCCN1S(=O)(=O)c1ccc(NC(=O)c2ccncc2)cc1 (stereo not given)")
"> 112 µM (not active)"
>>> observed_result("CN(C)c1ccc(N/C=C/C(=O)c2ccco2)cc1")
"1.9 µM (active)"

Now for the compound whose EC50 we want.
Problem: System Luciferin 4-monooxygenase (Photinus pyralis, UniProt P08659). Read-out EC50. Item `c1ccc2[nH]c(-c3ccc4c(c3)OCO4)nc2c1` . Report value.
Solution: 1.16 µM (active)

====

- MEASUREMENT TARGET: Large T antigen (Simian virus 40, UniProt P03070)
- Sequence (P03070 whole entry): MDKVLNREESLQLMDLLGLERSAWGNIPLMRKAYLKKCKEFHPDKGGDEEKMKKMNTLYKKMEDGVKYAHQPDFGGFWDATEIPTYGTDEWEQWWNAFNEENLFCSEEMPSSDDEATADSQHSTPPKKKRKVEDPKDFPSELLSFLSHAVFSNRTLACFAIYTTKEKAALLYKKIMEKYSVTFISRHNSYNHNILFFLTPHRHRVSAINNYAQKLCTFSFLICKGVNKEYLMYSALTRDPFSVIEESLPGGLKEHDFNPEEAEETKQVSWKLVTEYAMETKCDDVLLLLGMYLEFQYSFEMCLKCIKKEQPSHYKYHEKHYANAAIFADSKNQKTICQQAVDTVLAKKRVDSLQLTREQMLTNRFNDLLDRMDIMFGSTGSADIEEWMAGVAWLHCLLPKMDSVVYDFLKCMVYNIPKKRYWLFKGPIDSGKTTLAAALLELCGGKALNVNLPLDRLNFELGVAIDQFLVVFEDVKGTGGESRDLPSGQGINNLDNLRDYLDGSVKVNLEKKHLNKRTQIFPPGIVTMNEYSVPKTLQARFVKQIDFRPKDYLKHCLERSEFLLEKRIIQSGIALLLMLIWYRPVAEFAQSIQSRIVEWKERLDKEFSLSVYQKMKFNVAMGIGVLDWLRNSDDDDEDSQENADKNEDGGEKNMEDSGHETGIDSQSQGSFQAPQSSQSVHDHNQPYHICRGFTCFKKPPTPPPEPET
- Type: functional, Betapolyomavirus macacae
Calls of active or inactive are those of the source.
Measured IC50, listed per entry for reference.

Problem: Supply IC50 measured with Large T antigen (Simian virus 40, UniProt P03070) for CC1CN=C(Nc2ccc(N(C)C)cc2)S1 (stereo not given) .
Solution: 9.27 µM (active)

Problem: Report its IC50 with Large T antigen (Simian virus 40, UniProt P03070) as the test system: `O=C(OCCc1ccccc1)c1cc(O)c(O)c(O)c1`
Solution: > 100 µM (active)

Problem: Identify measured IC50 obtained with Large T antigen (Simian virus 40, UniProt P03070) for `CN(C)c1nn(C(=O)Nc2ccc(Cl)cc2Cl)cc1-c1ccccc1` .
Solution: 38 µM (active)

Problem: GET IC50 where system = Large T antigen (Simian virus 40, UniProt P03070) and item = COc1ccc(N2CCC(CN=C(S)Nc3ccc(C)cc3C)C2)cc1 (stereo not given)
Solution: 11 µM (active)

Problem: Print Large T antigen (Simian virus 40, UniProt P03070) IC50 for `COc1cc(/C=C2/C(=O)c3cccc([N+](=O)[O-])c3C2=O)c(Br)cc1O` .
Solution: 13.9 µM (active)

Problem: Specify the recorded IC50 for `COCCNC(=O)Nc1ccc2nc(-c3ccco3)c(-c3ccco3)nc2c1` , system: Large T antigen (Simian virus 40, UniProt P03070).
Solution: > 100 µM (active)

Problem: Provide IC50, system Large T antigen (Simian virus 40, UniProt P03070), entry `Cc1ccccc1N1C(=O)NC(=O)/C(=C/Nc2ccc(N(C)C)cc2)C1=O`
Solution: 6.73 µM (active)

Problem: Write IC50 of `CCN(CC)C(=S)SSC(=S)N(CC)CC` ; system used: Large T antigen (Simian virus 40, UniProt P03070);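 note: Confirmatory-stage PubChem screen for compounds that inhibit SV40 T antigen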
Solution: 10.7 µM (active)

Problem: Give measured IC50 for `CC(=O)NS(=O)(=O)c1ccc(/N=c2\ssc3c2-c2cc(C)ccc2NC3(C)C)cc1` (Large T antigen (Simian virus 40, UniProt P03070)).
Solution: > 100 µM (active)

Problem: Quote Large T antigen (Simian virus 40, UniProt P03070) IC50 for entry `CC1=NOC(=O)/C1=C\c1ccc(-c2ccccc2Br)o1` .
Solution: 16.4 µM (active)

====

Each entry below lists one item and its recorded EC50 value.
- ASSAY METHOD TEXT: NIH3T3 cell viability loss – ATP luminescence, mouse fibroblasts, counter-screen, dose response (AID 2010);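 note: cells exposed to compound for about 90 hours before reading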
- Assay type: functional, cell-based
Activity calls are given as the source filed them.

Illustrative cases are given below, each with its answer.
>>> observed_result("Cc1cccc(-n2cc(CN(C)Cc3nccn3C)c(-c3cccc(F)c3)n2)c1")
"11.8 µM (active)"
>>> observed_result("O=C(NC1CCN(Cc2ccccc2)CC1)c1ccc(Cn2c(=S)[nH]c3ccc(N4CCOCC4)cc3c2=O)cc1")
"10.4 µM (active)"
>>> observed_result("Cc1sc(N/N=C/C=C/c2ccccc2)nc1-c1ccccc1")
"13.8 µM (active)"

Problem: // fetch EC50 given entry `COc1ccc(NS(=O)(=O)c2cccc(C(=O)NC3CCN(Cc4ccccc4)CC3)c2)cc1`
Solution: > 30 µM (not active)

Problem: Report measured EC50; entry is `CC1CCN(Cc2c(C(=O)N/N=C/c3cc(Br)ccc3O)nnn2-c2nonc2N)CC1`
Solution: 5.24 µM (active)

====

Property: EC50; scope: individual compounds
- MEASUREMENT TARGET: Peroxisome proliferator-activated receptor gamma/Nuclear receptor coactivator 3 (Homo sapiens)
- Sequence (P37231 whole entry): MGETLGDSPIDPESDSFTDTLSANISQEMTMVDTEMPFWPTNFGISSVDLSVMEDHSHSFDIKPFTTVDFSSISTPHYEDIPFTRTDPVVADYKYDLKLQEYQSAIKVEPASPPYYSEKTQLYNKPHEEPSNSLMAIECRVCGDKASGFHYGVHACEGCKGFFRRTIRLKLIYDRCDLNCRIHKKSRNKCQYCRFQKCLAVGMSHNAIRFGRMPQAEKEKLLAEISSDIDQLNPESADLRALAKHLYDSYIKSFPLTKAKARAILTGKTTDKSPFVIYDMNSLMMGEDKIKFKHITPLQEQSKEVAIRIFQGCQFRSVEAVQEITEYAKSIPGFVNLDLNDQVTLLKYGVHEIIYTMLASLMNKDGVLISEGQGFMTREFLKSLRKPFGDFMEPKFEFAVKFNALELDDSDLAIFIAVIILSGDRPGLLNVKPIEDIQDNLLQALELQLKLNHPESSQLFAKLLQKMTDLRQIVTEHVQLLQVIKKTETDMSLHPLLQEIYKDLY
- Sequence (Q9Y6Q9 whole entry, further chain): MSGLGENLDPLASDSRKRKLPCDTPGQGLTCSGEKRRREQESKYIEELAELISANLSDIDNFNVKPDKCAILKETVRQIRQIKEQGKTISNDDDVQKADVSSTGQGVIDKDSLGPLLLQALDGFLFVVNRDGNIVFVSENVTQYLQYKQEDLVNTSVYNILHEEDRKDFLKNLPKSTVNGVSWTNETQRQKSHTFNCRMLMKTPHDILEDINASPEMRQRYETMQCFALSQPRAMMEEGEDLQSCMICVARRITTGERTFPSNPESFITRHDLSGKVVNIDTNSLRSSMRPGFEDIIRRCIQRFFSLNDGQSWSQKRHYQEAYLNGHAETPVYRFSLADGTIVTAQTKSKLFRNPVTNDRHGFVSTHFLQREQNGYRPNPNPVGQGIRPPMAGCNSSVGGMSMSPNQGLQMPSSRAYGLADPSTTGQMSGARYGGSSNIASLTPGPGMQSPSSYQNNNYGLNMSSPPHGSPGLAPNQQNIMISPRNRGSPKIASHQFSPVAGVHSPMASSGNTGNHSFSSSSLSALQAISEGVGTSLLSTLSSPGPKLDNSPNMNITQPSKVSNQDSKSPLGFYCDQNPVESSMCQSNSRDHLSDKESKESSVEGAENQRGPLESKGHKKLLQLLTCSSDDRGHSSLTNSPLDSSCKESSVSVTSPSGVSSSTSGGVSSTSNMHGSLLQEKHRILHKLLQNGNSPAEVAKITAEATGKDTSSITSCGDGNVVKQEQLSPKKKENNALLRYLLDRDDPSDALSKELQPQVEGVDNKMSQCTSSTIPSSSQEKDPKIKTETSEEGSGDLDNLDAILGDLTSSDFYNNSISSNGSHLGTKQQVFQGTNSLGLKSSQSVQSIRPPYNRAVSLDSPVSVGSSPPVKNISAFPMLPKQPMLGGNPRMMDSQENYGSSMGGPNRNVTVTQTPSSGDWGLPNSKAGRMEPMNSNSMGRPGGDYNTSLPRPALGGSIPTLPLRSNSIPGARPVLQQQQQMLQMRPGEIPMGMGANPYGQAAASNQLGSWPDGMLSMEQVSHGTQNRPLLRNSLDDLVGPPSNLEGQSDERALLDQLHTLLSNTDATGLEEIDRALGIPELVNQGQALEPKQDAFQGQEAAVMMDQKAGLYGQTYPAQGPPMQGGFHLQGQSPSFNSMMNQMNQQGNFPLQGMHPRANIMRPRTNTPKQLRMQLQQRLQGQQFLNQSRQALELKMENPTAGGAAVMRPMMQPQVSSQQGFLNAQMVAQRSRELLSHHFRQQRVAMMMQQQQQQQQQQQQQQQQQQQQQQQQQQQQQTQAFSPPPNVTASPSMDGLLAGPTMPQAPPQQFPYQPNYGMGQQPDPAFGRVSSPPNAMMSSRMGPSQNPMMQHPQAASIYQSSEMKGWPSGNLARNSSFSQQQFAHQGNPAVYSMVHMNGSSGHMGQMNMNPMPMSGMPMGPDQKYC
- ASSAY METHOD TEXT: TR-FRET dose response biochemical High Throughput Screening assay for agonists of the steroid receptor coactivator 3 (SRC-3) recruitment by the peroxisome proliferator-activated receptor gamma (PPAR gamma): non-selective agonists. [Related pubchem assays: 1301 (Confirmation screen.), 1048 (Primary screen.)]
- Format: functional

Use the examples below as a reference point.
>>> observed_result("CCOC(=O)CSc1c(-c2cccs2)[nH]c2ccccc12")
"53.8 µM (not active)"
>>> observed_result("CCOC(=O)C1CCN(C(=O)CSc2cc(=O)n(CC)c3ccccc23)CC1")
"> 79.4 µM (not active)"
>>> observed_result("CC1=NOC(=O)/C1=C\\c1ccc(-c2ccccc2Br)o1")
"> 79.4 µM (not active)"

Problem: Determine its reported EC50: `Cn1c(=O)cc(SCC(=O)N2CCN(C(=O)c3ccco3)CC2)c2ccccc21`
Solution: > 79.4 µM (not active)

Problem: Read off the recorded EC50 for `O=C(O)Cc1sc(-c2ccccc2)nc1-c1cccs1`
Solution: > 79.4 µM (not active)

Data credit: ChEMBL document CHEMBL1201862
